Method Notes: inhibitors of TNFa-induced NFkB p65 translocation, primary screen, imaging, HUVEC, MLSMR starter and 10KST1 sets (AID 438);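 also: compound added about 3h40 before a 20 min TNFalpha stimulation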
Conditions: HUVEC TNFa-induced p65 nuclear translocation; measured here: nuclei count (cytotoxicity indicator), at 2.08 µM
Measurement Kind: cell count
Numbers only.

>  <Molecule>
Cn1c(C(=O)N2CCN(C(=O)c3ccco3)CC2)cc2c(=O)n3ccccc3nc21

>  <cell count>
323

$$$$
>  <Molecule>
CCOC(=O)CSc1nnc([C@H](C)NC(=O)OC(C)(C)C)o1

>  <cell count>
552

$$$$
>  <Molecule>
CCN(CC)c1ccc(/C=N/n2nnnc2N)c(O)c1

>  <cell count>
428

$$$$
>  <Molecule>
CCCCOC(=O)CNc1nnc(SCC(=O)OCC)[nH]c1=O

>  <cell count>
659

$$$$

Working through the 2 molecules below one at a time, give cell count for each.
1. O=C1c2ccccc2C(=O)N1C/C=C/CN1C(=O)c2ccccc2C1=O
2. Cc1nc2sc(C(c3cccc(F)c3)N3CCCCC3)c(O)n2n1 (stereo unspecified)

Result:
1: 480; 2: 223

* * *

Target System: Voltage-gated potassium channel subunit beta-2 (Rattus norvegicus)
Method Notes: enhancers of rat Kvbeta2 NADPH turnover – biochemical, NADPH fluorescence, primary screen (AID 623);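 also: fluorescence intensity change per second fitted from 20 to 320 s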
Conditions: Recombinant KvBeta, NADPH fluorescence decrease slope, 10 min; at 10 µM; stronger effect = lower value
Measurement Kind: NADPH fluorescence slope
Answers are plain numbers.

>  <Compound>
O=C(CCCC(=O)OCC(=O)NC1CCCC1)Nc1ccccn1

>  <Measurement Kind>
NADPH fluorescence slope

>  <Value Reported>
-4.5e-05

$$$$
>  <Compound>
CCOC(=O)C(NC(=O)c1ccccc1)(Nc1cc(C)on1)C(F)(F)F (stereo unspecified)

>  <Measurement Kind>
NADPH fluorescence slope

>  <Value Reported>
-1.9e-05

$$$$
>  <Compound>
Cn1c(Cc2ccccc2)nnc1SCC(=O)N1CCOCC1

>  <Measurement Kind>
NADPH fluorescence slope

>  <Value Reported>
-4.7e-05

$$$$
>  <Compound>
CN1CCN(C2=C(Cl)C(=O)N(c3cccc(Cl)c3)C2=O)CC1

>  <Measurement Kind>
NADPH fluorescence slope

>  <Value Reported>
-3.9e-05

$$$$
>  <Compound>
Cc1cccc(NC(=O)C2CCCN2C(=O)OCC(C)C)c1C (stereo unspecified)

>  <Measurement Kind>
NADPH fluorescence slope

>  <Value Reported>
-6.4e-05

$$$$
>  <Compound>
Cc1nc2ccccc2c(=O)n1CC(=O)N1CCOCC1

>  <Measurement Kind>
NADPH fluorescence slope

>  <Value Reported>
-4.9e-05

$$$$
>  <Compound>
CC1=C(n2nnc3ccccc32)C(c2ccccc2)C(C#N)=C(N)O1 (stereo unspecified)

>  <Measurement Kind>
NADPH fluorescence slope

>  <Value Reported>
-0.00012

$$$$
>  <Compound>
COC(=O)c1ccc(NC(=O)Cn2nnc3ccccc32)cc1

>  <Measurement Kind>
NADPH fluorescence slope

>  <Value Reported>
-5.8e-05

$$$$
>  <Compound>
O=C(C1CCN(S(=O)(=O)c2cccc3cccnc23)CC1)N1CCN(C2CCCCC2)CC1

>  <Measurement Kind>
NADPH fluorescence slope

>  <Value Reported>
-1.6e-05

$$$$
>  <Compound>
COCCNC(=O)CN(C)S(=O)(=O)c1ccc(Br)cc1

>  <Measurement Kind>
NADPH fluorescence slope

>  <Value Reported>
-3.7e-05

$$$$

Next up:
Task: Need NADPH fluorescence slope of C=CCN(C(=O)CNC(=O)c1ccco1)C(C(=O)NC1CCCCC1)c1ccccc1F (stereo unspecified) , thanks.
Result: 1.7e-06

* * *

Target System: Voltage-gated potassium channel subunit beta-2 (Rattus norvegicus)
Method Notes: inhibitors of rat Kvbeta2 reductase activity – biochemical, NADPH fluorescence, primary screen (AID 622);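 also: slope of raw intensity against log time taken from 70 to 1610 s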
Conditions: recombinant KvBeta, 4-cyanobenzaldehyde reduction, at 10 µM, stronger effect = higher value
Lab note: compare fluorescence slope against -0.5. Equal or greater, write condition met. Smaller, write condition not met.

Examples with answers:
>  <Molecule>
Cc1cc2c(cc1C)C(=O)NC(C)(C)C2

>  <Label Value>
condition met

$$$$
>  <Molecule>
COc1cc(OC)c(-c2nn3c(C4CCCCC4)nnc3s2)cc1OC

>  <Label Value>
condition met

$$$$
>  <Molecule>
O=C(CC(SCCO)c1ccc2c(c1)OCO2)c1ccco1 (stereo unspecified)

>  <Label Value>
condition not met

$$$$

Task: Hello, I need to know if C=CCSc1n[nH]c(-c2ccc(OC)cc2)n1 has measured fluorescence slope not below -0.5. Thanks!
Result: condition met

Task: Does the molecule c1ccc(CNc2c3c(nc4ncnn24)CCCC3)nc1 have recorded fluorescence slope that is -0.5 or more?
Result: condition not met

* * *

Method Notes: reduction of polyQ htt aggregates in cells – imaging, exon1htt(103Q)mCFP cells, high-content imaging, primary screen (AID 483);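 also: compound exposure lasted 3 days before fixation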
Conditions: exon1htt(103Q)mCFP cell line, aggregate imaging, at 2 µM; stronger effect = higher value
The source made the active and inactive calls.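 Rule for the calls: active = visual image review flags a hit and inhibition of aggregation exceeds 20%; inconclusive = visual hit but inhibition at or below 20%; inactive = no hit on visual image review.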
Measurement Kind: inhibition of aggregation

// below: answered molecules
>  <Molecule>
CCOC(=O)C1CCN(C(=O)COc2ccc(Cl)cc2Cl)CC1

>  <Measurement Kind>
inhibition of aggregation

>  <Value Reported>
8% (inactive)

$$$$
>  <Molecule>
COc1ccc(CN(CC(=O)NCc2ccco2)C(=O)CCC(=O)Nc2nccs2)cc1

>  <Measurement Kind>
inhibition of aggregation

>  <Value Reported>
-4.3% (inactive)

$$$$
>  <Molecule>
COc1ccc(S(=O)(=O)N2CCSC2c2ccccc2)cc1 (stereo not given)

>  <Measurement Kind>
inhibition of aggregation

>  <Value Reported>
-10.4% (inactive)

$$$$
>  <Molecule>
O=C(CSc1nnc(-c2ccncc2)n1-c1ccc(F)cc1)NC(=O)NCc1ccco1

>  <Measurement Kind>
inhibition of aggregation

>  <Value Reported>
-9.8% (inactive)

$$$$

Turning now to a further record.
Task: I'd like to know its inhibition of aggregation. The molecule in question is Cc1nc2ccc(S(=O)(=O)NC(C(=O)Nc3nccs3)C(C)C)cc2s1 (stereo not given)
Result: -4.4% (inactive)

* * *

Kindly state NADPH fluorescence slope for each of the entries shown.
Target System: Voltage-gated potassium channel subunit beta-2 (Rattus norvegicus) (UniProt P62483)
Sequence (P62483 whole entry, looked up): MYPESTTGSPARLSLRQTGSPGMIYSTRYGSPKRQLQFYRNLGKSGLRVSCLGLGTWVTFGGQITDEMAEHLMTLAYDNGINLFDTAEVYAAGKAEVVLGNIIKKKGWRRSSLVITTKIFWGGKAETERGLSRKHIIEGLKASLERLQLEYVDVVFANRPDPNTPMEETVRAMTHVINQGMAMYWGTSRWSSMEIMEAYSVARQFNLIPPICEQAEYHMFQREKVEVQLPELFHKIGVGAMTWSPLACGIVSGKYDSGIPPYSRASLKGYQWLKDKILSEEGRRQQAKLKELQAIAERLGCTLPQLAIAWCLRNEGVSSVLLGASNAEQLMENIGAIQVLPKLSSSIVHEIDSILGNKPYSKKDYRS
Method Notes: enhancers of rat Kvbeta2 NADPH turnover – biochemical, NADPH fluorescence, primary screen (AID 623);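 also: fluorescence intensity change per second fitted from 20 to 320 s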
Conditions: Recombinant KvBeta, NADPH fluorescence decrease slope, 10 min; at 10 µM; stronger effect = lower value
Calls of active or inactive are those of the source.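 The calls were made as follows: active = NADPH fluorescence slope more negative than the mean of all samples by about 3 SD, 99.7% confidence; inactive = the rest.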

Kindly give each listed record's NADPH fluorescence slope.
1. CCN(CC)S(=O)(=O)c1ccc2c(c1)nc(SCC(=O)NC1CC1)n2-c1ccccc1OC
2. COc1ccc(CC(=O)NC2CCN(CC(=O)Nc3ccc4c(c3)OCCO4)CC2)cc1OC
3. Cc1nc2ccc(S(=O)(=O)NCC(=O)N(C)Cc3ccco3)cc2s1

Result:
1: -7.2e-06 (inactive); 2: -6.5e-06 (inactive); 3: -1.2e-05 (inactive)

Kindly give each listed record's NADPH fluorescence slope.
1. CCn1cc(C(=O)O)c(=O)c2cc(F)c(N3CCN(C(=O)Nc4ccccc4)CC3)cc21
2. COc1cccc(-c2nnc(NC(=O)c3ccccc3Br)o2)c1

Result:
1. -8.3e-06 (inactive)
2. -3.3e-05 (inactive)

* * *

Task for the reader: assign each of the following compounds its reported inhibition.
Method Notes: TLR3 IRF3 reporter activation blockers – cell-based, poly I:C stimulus, luciferase, 10K MLSCN set, primary screen (AID 602277)
Conditions: HEK293-TLR3 RL24 IRF3 luciferase reporter, at 10 µM, stronger effect = higher value
Give bare numbers, in %.

Can you give me inhibition for all of these, one by one?
1. CSc1nc(C)cc(Oc2ccc(=O)n(C)n2)n1
2. CC1=C(C(N)=O)C(c2ccccn2)n2nc(SCc3ccccc3)nc2N1 (stereo not drawn)
3. O=C(CN(C(=O)CCNC(=O)c1ccco1)c1ccccc1)NC1CCCC1
4. CNC(=O)C1C2C=CC3(O2)C1C(=O)N(C1CC1)C3C(=O)NCc1ccc(OC)cc1 (stereo not drawn)
5. COc1ccccc1N(CC(=O)NCc1ccccn1)S(C)(=O)=O
6. Cn1c2ccccc2c2ncn(CCCN3CCOCC3)c(=O)c21

Result:
1. 22.5
2. 0.00265
3. -6.31
4. 20.2
5. 32.3
6. 23.7

Your task in this section: give inhibition for each listed record.
1. COc1cccc(C2=NOC(C(=O)N3CCc4ccccc4C3)C2)c1 (stereo not drawn)
2. CC(C)COC(=O)C1C2C=CC3(CN(C(C)c4ccc(Br)cc4)C(=O)C13)O2 (stereo not drawn)
3. CCc1cc2c(=O)n(C(C)C(=O)OC3CCCCC3)cnc2s1 (stereo not drawn)
4. CCN(CC)C(=O)COC(=O)c1ccc(O)cc1
5. CCN1C(=O)c2cccc3c(NC(=O)c4ccc5c(c4)OCCO5)ccc1c23

Result:
1. -15
2. 28.5
3. -101
4. -1.25
5. 17

List inhibition for every entry below, keeping the order given.
1. CCOc1cc(S(=O)(=O)N2CCC(Cc3ccccc3)CC2)c(OCC)cc1-n1cnnn1
2. O=C(O)CCCC(=O)Nc1nc(-c2ccc(F)cc2)cs1
3. O=S(=O)(NCC1CCCO1)c1ccc2c(c1)OCCO2 (stereo not drawn)
4. COc1ccc(-c2nc(C#N)c(NCCCN(C)C)o2)cc1OC

Result:
1: 10.4; 2: 14.9; 3: 7.25; 4: 33.3

Each recorded value in this set is attributed to PubChem BioAssay.
